Property: MIC; scope: individual molecules
test system: Trichomonas vaginalis; test: Antiparasitic activity against metronidazole resistant Trichomonas vaginalis ATCC 50143 after 48 hrs by trypan blue exclusion assay; format: functional; details: ATCC 50143, 48 h
Measurement Type: MIC (µM)

>>> numeric_readout("Cc1nc([N+](=O)[O-])cn1CC(O)CSC(=S)N1CCN(C(=O)OC(C)(C)C)CC1 (racemic)")
562
>>> numeric_readout("Cc1nc([N+](=O)[O-])cn1CC(O)Cn1c([N+](=O)[O-])cnc1C (racemic)")
101
>>> numeric_readout("COc1ccccc1N1CCN(C(=S)SCC(O)Cn2cc([N+](=O)[O-])nc2C)CC1 (racemic)")
1110
>>> numeric_readout("Cc1ncc([N+](=O)[O-])n1CC(O)CSC(=S)N1CCN(c2ncccn2)CC1 (racemic)")
29.6
>>> numeric_readout("CCCCN1CCN(C(=S)SCC(O)Cn2c([N+](=O)[O-])cnc2C)CC1 (racemic)")
31.2
>>> numeric_readout("Cc1ncc([N+](=O)[O-])n1CC(O)Cn1ccnn1 (racemic)")
99.2
>>> numeric_readout("Cc1ncc([N+](=O)[O-])n1CC(O)CSC(=S)N1CCCCC1 (racemic)")
145
>>> numeric_readout("Cc1ncc([N+](=O)[O-])n1CC(O)CSC(=S)N1CCCC(C)C1 (racemic)")
69.8
>>> numeric_readout("Cc1ncc([N+](=O)[O-])n1CC(O)CN1CCN(c2ccco2)CC1 (racemic)")
172
>>> numeric_readout("Cc1ncc([N+](=O)[O-])n1CC(O)Cn1cncn1 (racemic)")
99.2
>>> numeric_readout("Cc1ncc([N+](=O)[O-])n1CC(O)CN1CCC(Cc2ccccc2)CC1 (racemic)")
140
>>> numeric_readout("Cc1ncc([N+](=O)[O-])n1CC(O)CN1C(C)CCCC1C (racemic)")
84.5
>>> numeric_readout("Cc1ncc([N+](=O)[O-])n1CC(O)Cn1cnc([N+](=O)[O-])c1 (racemic)")
106
>>> numeric_readout("Cc1ncc([N+](=O)[O-])n1CC(O)CN1CCN(c2ccccn2)CC1 (racemic)")
72.2
>>> numeric_readout("Cc1ncc([N+](=O)[O-])n1CC(O)CSC(=S)N1CCN(c2cccc(Cl)c2Cl)CC1 (racemic)")
128
>>> numeric_readout("Cc1ncc([N+](=O)[O-])n1CC(O)CSC(=S)N1CCN(C(=O)OC(C)(C)C)CC1 (racemic)")
70.2
>>> numeric_readout("Cc1ncc([N+](=O)[O-])n1CC(O)CN1CCOCC1 (racemic)")
92.6
>>> numeric_readout("Cc1ncc([N+](=O)[O-])n1CC(O)CSC(=S)N1CCC(Cc2ccccc2)CC1 (racemic)")
28.8
>>> numeric_readout("Cc1ncc([N+](=O)[O-])n1CC(O)CSC(=S)N1CCCCCC1 (racemic)")
69.8

* * *

Let's look at some compounds and their measured selectivity ratio.
experiment: Selectivity index, ratio of IC50 for human HeLa cells to MIC for metronidazole resistant Trichomonas vaginalis ATCC 50143; format: toxicity, cell-based; conditions: read-out: Selectivity Index
Measurement Type: selectivity ratio

>>> result("Cc1ncc([N+](=O)[O-])n1CC(O)Cn1ccnn1 (racemic)")
"> 50"
>>> result("Cc1ncc([N+](=O)[O-])n1CC(O)CN1CCN(c2ccccc2)CC1 (racemic)")
"> 27"
>>> result("Cc1nc([N+](=O)[O-])cn1CC(O)CSC(=S)N1CCCC(C)C1 (racemic)")
2
>>> result("CCN1CCN(C(=S)SCC(O)Cn2cc([N+](=O)[O-])nc2C)CC1 (racemic)")
"> 3"
>>> result("Cc1ncc([N+](=O)[O-])n1CCO [METRONIDAZOLE]")
"> 13"
>>> result("Cc1ncc([N+](=O)[O-])n1CC(O)Cn1cnc([N+](=O)[O-])c1 (racemic)")
"> 47"
>>> result("Cc1ncc([N+](=O)[O-])n1CC(O)CSC(=S)N1CCCC(C)C1 (racemic)")
8
>>> result("Cc1nc([N+](=O)[O-])cn1CC(O)Cn1c([N+](=O)[O-])cnc1C (racemic)")
43
>>> result("Cc1ncc([N+](=O)[O-])n1CC(O)CSC(=S)N(C)C (racemic)")
"> 61"
>>> result("Cc1ncc([N+](=O)[O-])n1CC(O)CN1CCCC1 (racemic)")
"> 25"
>>> result("CCN1CCN(C(=S)SCC(O)Cn2c([N+](=O)[O-])cnc2C)CC1 (racemic)")
"> 60"
>>> result("COc1ccccc1N1CCN(C(=S)SCC(O)Cn2cc([N+](=O)[O-])nc2C)CC1 (racemic)")
"> 4"
>>> result("Cc1ncc([N+](=O)[O-])n1CC(O)Cn1nccn1 (racemic)")
"> 102"
>>> result("Cc1ncc([N+](=O)[O-])n1CC(O)CN1CCN(c2cccc(Cl)c2)CC1 (racemic)")
4
>>> result("CCOC(=O)N1CCN(C(=S)SCC(O)Cn2c([N+](=O)[O-])cnc2C)CC1 (racemic)")
26
>>> result("Cc1ncc([N+](=O)[O-])n1CC(O)CN1CCCCC1C (racemic)")
"> 11"
>>> result("CCOC(=O)N1CCN(C(=S)SCC(O)Cn2cc([N+](=O)[O-])nc2C)CC1 (racemic)")
4

Ref: ChEMBL document CHEMBL3875170
